Data origin, for the record: PubChem BioAssay

- Test System: Carbonic anhydrase 2 (Homo sapiens)
- Method: CAII small-molecule binders, profiling panel, biochemical, small-molecule microarray, Alexa647-labelled CAII (AID 1122)
- Test Conditions: CAII-A647 binding fluorescence, higher = more signal
Property: composite z-score

Field: example entries. Status: answers known.
Molecular String	composite z-score
CCCNC(=O)[C@@H]1c2ccccc2C(=O)N(Cc2ccccc2Cl)[C@H]1c1ccc(CO)cc1	0.585
CN(C)CCCNC(=O)[C@@H]1c2ccccc2C(=O)N(Cc2cc(F)cc(C(F)(F)F)c2)[C@H]1c1ccc(CO)cc1	0.783
O=C1[C@H]2[C@H]3[C@H](O)[C@H](O)CC(=NO[C@@H]4O[C@H](CO)[C@@H](O)[C@H](O)[C@H]4O)[C@@H]3CC[C@H]2C(=O)N1Cc1ccccc1	-0.568
COc1ccc([Si](C)(C)[C@@H]2[C@@H](CCO)O[C@]3(C(=O)N(Cc4ccc(NC(C)=O)cc4)c4ccccc43)[C@H]2C)cc1	0.574

Field: next molecule
Memo: CC(C)CON=C1C[C@@H](O)[C@@H](O)[C@@H]2[C@@H]3C(=O)N(C[C@@H]4CCCO4)C(=O)[C@@H]3CC[C@H]12 , reported composite z-score: 0.0765

----------
- Tested on: Noggin (protein binding on small-molecule microarray)
- Method: Noggin binders on small-molecule microarray, primary screen, biochemical, 635/667 nm fluorescence (AID 1095);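 further: score merges 667 nm feature fluorescence with signal to noise over triplicate slides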
- Test Conditions: 635 nm fluorescence, higher = more signal
Record satisfied whenever composite z-score is at 0.3 or higher; record not satisfied when lower.

Solved cases below.
Molecule	Discrete Label
CCCC[C@@H]1C[C@H]1[C@@H](NS(=O)(=O)c1cccc2cccnc12)c1ccc(-c2ccccc2)cc1	not satisfied
COC(=O)[C@H](C)NC(=O)CCC1CC(OC(=O)NCc2cccc3ccccc23)CC2(CCCC(COC(=O)NCCc3ccc(Cl)cc3)O2)O1 (some centres not stated)	satisfied
CCOC(=O)C[C@H]1[C@H](OC(=O)c2ccc(C(=O)c3ccccc3)cc2)[C@@H](NC(=O)c2ccc(-c3ccccc3)cc2)c2cc(OCCCO)ccc2N1C(=O)c1ccc2ccccc2n1	satisfied
CC(C)NC(=O)[C@@H]1c2ccccc2C(=O)N(CC23CC4CC(CC(C4)C2)C3)[C@H]1c1ccc(CO)cc1	satisfied
C=C(/C(=C/C[C@H](OC(C)=O)c1ccc(OCCO)cc1)c1cnc2ccccc2c1)C(C)C	satisfied

State whether the measured composite z-score reaches 0.3, counting equality as reaching it, for CC(CCC(=O)OC[C@H]1O[C@H](C#Cc2ccccc2)C=C[C@@H]1Oc1ccc(C)cc1)=NOC[C@@H](O)COCc1ccco1
not satisfied

Is composite z-score at least 0.3? Consider COCCOC(=O)N1C(=O)[C@@]2(c3cc(C#Cc4ccc(OC)cc4)ccc31)[C@H](c1ccc(O)cc1)N1[C@H](c3ccccc3)[C@H](c3ccccc3)OC(=O)[C@H]1[C@@H]2C(N)=O
satisfied

----------
- System: Sam68 (KHDRBS1)
- Method: Sam68 small-molecule binders, primary screen, biochemical, small-molecule microarray, 635 nm fluorescence (AID 1125);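 further: score merges 667 nm channel intensity with signal to noise over triplicate slides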
- Test Conditions: small-molecule microarray binding, higher = more signal
Property: composite z-score
Respond with the number and no other words.

Solved cases (3 shown):
Compound	Observed Measurement
O=C1O[C@@H](c2ccccc2)[C@@H](c2ccccc2)N2[C@@H](c3ccccc3OCCO)[C@]3(C(=O)Nc4ccc(C#CCCO)cc43)[C@@H](C(=O)O)[C@H]12	1.2
C=CCNC(=O)[C@H]1[C@@H]2C(=O)O[C@@H](c3ccccc3)[C@@H](c3ccccc3)N2[C@@H](c2ccc(O)cc2)[C@]12C(=O)N(C(=O)OCCOC)c1ccc(C#CC3=CCCCC3)cc12	1.3
CC[C@@H](c1ccccc1)n1c(=O)n2n(c1=O)[C@H]1[C@H](O)[C@@H]3O[C@@H]3C(=NOCC(C)C)[C@H]1CC2	0.362

Observed composite z-score, Sam68 (KHDRBS1), CO[C@H]1COC(=O)[C@H](C)NC(=O)[C@@H](C)COC(=O)CC=C[C@@H]1C : 0.41

The measured composite z-score that CCCNC(=O)OC[C@H]1O[C@H](CCON=CC[C@@H]2C=C[C@H](OC(C)=O)[C@@H](COC(C)=O)O2)C=C[C@@H]1Oc1ccc(OC)cc1 showed for Sam68 (KHDRBS1) is 0.911

Field composite z-score (system: Sam68 (KHDRBS1)) for entry C#C[C@@H](CC)O[Si](C#Cc1ccc(Oc2ccccc2)cc1)(C(C)C)C(C)C = 1.3

The reported Sam68 (KHDRBS1) composite z-score of CCCCCCc1nc(CCCc2cc3c(c(CCCCCC)n2)[Si](C(C)C)(C(C)C)O[C@H]3c2ccccc2)cc2c1[Si](C(C)C)(C(C)C)O[C@H]2c1ccccc1 is -0.14

Per the reported Sam68 (KHDRBS1) data, COCCOC(=O)N1C(=O)[C@@]2(c3cc(C#Cc4ccc(OC)cc4)ccc31)[C@H](C(=O)N1CCN(c3ncccn3)CC1)[C@H]1C(=O)O[C@H](c3ccccc3)[C@H](c3ccccc3)N1[C@@H]2c1ccc(OCCO)cc1 has composite z-score of 0.556

# CCOC(=O)CCN1C(=O)[C@H]2[C@H]3[C@H](O)[C@H](O)CC(=NOC[C@@H](O)COCc4ccco4)[C@H]3CC[C@H]2C1=O with Sam68 (KHDRBS1): composite z-score is 1.32

Record COC(=O)C1=C(C)[C@@H](O)[C@@H](C)[C@H](c2c(OC)c(OC)c(C)c(OC)c2OC)O1 has Sam68 (KHDRBS1) composite z-score equal to -0.441
